- assay.explanation: physchem
- study.conditions: 23 °C, fassif, thermodynamic from solid
Here the recorded solubility thermodynamic is given for each entry.

- query.smiles: "CC1=NO[C@@]2(CC[C@H](C)N3C[C@H]2n2cc(C(=O)NCc4ccc(F)cc4F)c(=O)c(OC(=O)N(C)c4ncc(C(=O)O)cc4CN(CC(=O)O)C(=O)OCOP(=O)(O)O)c2C3=O)C1"
  solubility thermodynamic / µg/mL: 4800
- query.smiles: "CC1=NO[C@@]2(CC[C@H](C)N3C[C@H]2n2cc(C(=O)NCc4ccc(F)cc4F)c(=O)c(OC(=O)OCc4ccccc4OP(=O)(O)O)c2C3=O)C1"
  solubility thermodynamic / µg/mL: 1330
- query.smiles: "CC1=NO[C@@]2(CC[C@H](C)N3C[C@H]2n2cc(C(=O)NCc4ccc(F)cc4F)c(=O)c(OCOC(=O)N(C)Cc4ccc(OP(=O)(O)O)cc4)c2C3=O)C1"
  solubility thermodynamic / µg/mL: 4830

----------
- assay.explanation: in vitro
- study.conditions: human, uninfected MT-4 cells
quantity.measured: CC50 at 5 days (µM)

- query.smiles: "CC1=NO[C@@]2(CC[C@H](C)N3C[C@H]2n2cc(C(=O)NCc4ccc(F)cc4F)c(=O)c(OCOC(=O)N(C)C[C@@H]4CCCN4C(=O)OCOP(=O)(O)O)c2C3=O)C1"
  quantity.measured: "CC50 at 5 days"
  limit.sign: "="
  reported: 16.8
- query.smiles: "CC1=NO[C@@]2(CC[C@H](C)N3C[C@H]2n2cc(C(=O)NCc4ccc(F)cc4F)c(=O)c(OCOC(=O)OCC4(COP(=O)(O)O)CCC4)c2C3=O)C1"
  quantity.measured: "CC50 at 5 days"
  limit.sign: "="
  reported: 11.2
- query.smiles: "COC1=NO[C@@]2(CC[C@H](C)N3C[C@H]2n2cc(C(=O)NCc4ccc(F)cc4F)c(=O)c(OCOP(=O)(O)OCc4ccccc4)c2C3=O)C1"
  quantity.measured: "CC50 at 5 days"
  limit.sign: "≥"
  reported: 50

----------
- assay.explanation: in vitro
- study.conditions: human
Here the recorded CC50 is given for each entry.
quantity.measured: CC50 (µM)

- query.smiles: "CC1=NO[C@@]2(CC[C@H](C)N3C[C@H]2n2cc(C(=O)NCc4ccc(F)cc4F)c(=O)c(OCOC(=O)CC(C)(C)c4c(CC(=O)N[C@@H](CC(=O)O)C(=O)O)cc(C)cc4OP(=O)(O)O)c2C3=O)C1"
  reported: 30.7
- query.smiles: "CC1=NO[C@@]2(CC[C@H](C)N3C[C@H]2n2cc(C(=O)NCc4ccc(F)cc4F)c(=O)c(OC(=O)N(C)c4ncccc4CN(CCO)C(=O)OCOP(=O)(O)O)c2C3=O)C1"
  reported: 11.6
- query.smiles: "CC1=NO[C@@]2(CC[C@H](C)N3C[C@H]2n2cc(C(=O)NCc4ccc(F)cc4F)c(=O)c(OCOC(=O)N(C)Cc4ccc(C(=O)O)cc4OP(=O)(O)O)c2C3=O)C1"
  reported: 29.4
- query.smiles: "CC1=NO[C@@]2(CC[C@H](C)N3C[C@H]2n2cc(C(=O)NCc4ccc(F)cc4F)c(=O)c(OCOC(=O)N(C)c4ncccc4CN(CC(=O)N[C@@H](CCC(=O)O)C(=O)O)C(=O)OCOP(=O)(O)O)c2C3=O)C1"
  reported: 13.8
- query.smiles: "CC1=NO[C@@]2(CC[C@H](C)N3C[C@H]2n2cc(C(=O)NCc4ccc(F)cc4F)c(=O)c(OC(=O)OCCC(C)(C)c4c(CC(=O)O)cc(C)cc4OP(=O)(O)O)c2C3=O)C1"
  reported: 11.6
